Give measured LAP4-GFP fluorescence (kMESF) for each item. Keep answers brief.
# ASSAY_DETAILS: LAP4-GFP modulation potency in yeast, dose response, cell-based, MLPCN hits, flow cytometry (AID 2745);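 also: yeast exposed to compound for three hours at 30 degrees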
# SETTINGS: S. cerevisiae LAP4-GFP reporter, flow cytometry fluorescence; at 33 µM (top of the series)
The source made the active and inactive calls. No rule for the calls is given here.

Examples with answers:
ENTRY_SMILES	LAP4-GFP fluorescence (kMESF)
Cc1cc(O)c(C(=O)/C=C/c2c(F)c(F)c(F)c(F)c2F)c(=O)o1	7 kMESF (inactive)
C=CCn1c(C)c(/C=C/c2cc[n+](C)cc2)c2ccccc21	10.8 kMESF (inactive)
CC(C)CC(=O)NC(=S)Nc1nc(-c2ccccc2)cs1	3.44 kMESF (inactive)
CC(=O)[C@]1(O)Cc2c(O)c3c(c(O)c2[C@@H](O[C@H]2C[C@H](N)[C@H](O)[C@H](C)O2)C1)C(=O)c1ccccc1C3=O	9.67 kMESF (inactive)

Read the next record carefully.
Ask: Please give the measured LAP4-GFP fluorescence (kMESF) for this compound: CN(c1ccccc1)c1ccc(/C=c2\s/c(=C(/C#N)C(=O)C(C)(C)C)n(Cc3ccco3)c2=O)cc1
Reply: 10.4 kMESF (inactive)

* * *

# ASSAY_DETAILS: LAP4-GFP modulation potency in yeast, dose response, cell-based, MLPCN hits, flow cytometry (AID 2745);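 also: yeast exposed to compound for three hours at 30 degrees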
# SETTINGS: S. cerevisiae LAP4-GFP reporter, flow cytometry fluorescence; at 33 µM (top of the series)
Activity calls are given as the source filed them. How the calls were made is not given here.
RECORDED_METRIC: LAP4-GFP fluorescence (kMESF)

ENTRY_SMILES	LAP4-GFP fluorescence (kMESF)
CN(C)NC(=S)Nc1ccc(S(=O)(=O)N2CCCCC2)cc1	3.13 kMESF (inactive)
CC(C)(C)C(=O)NC(=S)NNC(=O)c1sc2ccccc2c1Cl	8.89 kMESF (inactive)

Batch request: LAP4-GFP fluorescence (kMESF) per item, same order as input.
1. Cc1cc(Br)c2c(c1)/C(=C/C(=O)c1cccs1)C(=O)N2
2. CN(Cc1cnc2nc(N)nc(N)c2n1)c1ccc(C(=O)N[C@@H](CCC(=O)O)C(=O)O)cc1
3. CCCCc1ccc(/C=C2/C(=O)ON=C2c2ccccc2)s1

Reply:
1: 6.22 kMESF (inactive); 2: 10.8 kMESF (inactive); 3: 3.67 kMESF (inactive)

* * *

# ASSAY_DETAILS: LAP4-GFP modulation potency in yeast, dose response, cell-based, MLPCN hits, flow cytometry (AID 2745);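 also: yeast exposed to compound for three hours at 30 degrees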
# SETTINGS: S. cerevisiae LAP4-GFP reporter, flow cytometry fluorescence; at 33 µM (top of the series)
Active and inactive are the calls of the source. The rule behind the calls is not given here.
RECORDED_METRIC: LAP4-GFP fluorescence (kMESF)

Examples with answers:
COMPOUND	RECORDED_METRIC	RESULT
O=[N+]([O-])c1cc(CN2CCN(c3ccccc3)CC2)c(O)c2ncccc12	LAP4-GFP fluorescence (kMESF)	14.7 kMESF (inactive)
CSc1nnc2c3cc(F)ccc3n(C)c2n1	LAP4-GFP fluorescence (kMESF)	2.93 kMESF (inactive)

Batch request: LAP4-GFP fluorescence (kMESF) per item, same order as input.
1. O=C1CC(c2ccccc2)=NN1c1nc(-c2ccccc2)cs1
2. Cc1sc(/C=C2\C(=O)ON=C2c2ccccc2)cc1Br
3. COc1cc(/C=C2/C(=O)ON=C2c2ccccc2)ccc1O
4. COc1ccc([C@]2(C(C)C)ON(c3ccccc3C(F)(F)F)C2=O)cc1

Reply:
3.94 kMESF (inactive)
2.73 kMESF (inactive)
9.39 kMESF (inactive)
4.65 kMESF (inactive)

Ask: Please give the measured LAP4-GFP fluorescence (kMESF) for this compound: CS(=O)(=O)c1sc(C#N)c2c1C(=O)CC(c1ccccc1)C2 (configuration not stated)
Reply: 14.6 kMESF (inactive)
